# TARGET_ENTITY: Dual specificity calcium/calmodulin-dependent 3',5'-cyclic nucleotide phosphodiesterase 1A (Bos taurus, UniProt P14100)
# Sequence (P14100 whole entry): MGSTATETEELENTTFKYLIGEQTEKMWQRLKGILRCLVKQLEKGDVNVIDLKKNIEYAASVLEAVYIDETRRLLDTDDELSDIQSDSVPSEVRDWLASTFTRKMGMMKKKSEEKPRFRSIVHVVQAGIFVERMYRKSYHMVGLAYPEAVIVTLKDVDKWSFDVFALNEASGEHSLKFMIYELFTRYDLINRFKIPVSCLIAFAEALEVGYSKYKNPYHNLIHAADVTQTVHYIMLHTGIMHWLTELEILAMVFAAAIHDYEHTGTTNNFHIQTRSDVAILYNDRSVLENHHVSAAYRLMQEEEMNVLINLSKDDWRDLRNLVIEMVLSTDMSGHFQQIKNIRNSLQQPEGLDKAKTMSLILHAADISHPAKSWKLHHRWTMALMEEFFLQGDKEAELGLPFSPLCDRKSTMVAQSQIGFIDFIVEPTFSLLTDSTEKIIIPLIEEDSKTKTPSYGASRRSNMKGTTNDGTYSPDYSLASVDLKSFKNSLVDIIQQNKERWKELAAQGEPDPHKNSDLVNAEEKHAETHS
# ASSAY_INFO: Optimum inhibitory concentration required to inhibit c-GMP specific phosphodiesterase 1 (PDE1) of bovine aorta
For each record, check the reported IC50: if it is below 40 nM write TRUE, else write FALSE.

Query: Dear colleague, could you confirm whether IC50 of "Cc1nc2c([nH]1)C(=O)N(C)C1=N[C@@H]3CCC[C@@H]3N12" falls below 40 nM? Thanks.
Result: FALSE

Query: Dear colleague, could you confirm whether IC50 of "CCCc1nc2c([nH]1)N1C(=N[C@@H]3CCC[C@@H]31)N(C)C2=O" falls below 40 nM? Thanks.
Result: FALSE

Query: Dear colleague, could you confirm whether IC50 of "CCCCCCCCc1nc2c([nH]1)N1C(=N[C@@H]3CCC[C@@H]31)N(C)C2=O" falls below 40 nM? Thanks.
Result: TRUE

Query: Dear colleague, could you confirm whether IC50 of "CC(C)CCc1nc2c([nH]1)N1C(=N[C@@H]3CCC[C@@H]31)N(C)C2=O" falls below 40 nM? Thanks.
Result: TRUE

Query: Dear colleague, could you confirm whether IC50 of "CCCC(CCC)c1nc2c([nH]1)N1C(=N[C@@H]3CCC[C@@H]31)N(C)C2=O" falls below 40 nM? Thanks.
Result: FALSE

Query: Dear colleague, could you confirm whether IC50 of "CCCCCCc1nc2c([nH]1)N1C(=N[C@@H]3CCC[C@@H]31)N(C)C2=O" falls below 40 nM? Thanks.
Result: TRUE

Query: Dear colleague, could you confirm whether IC50 of "CCCCCCc1nc2c([nH]1)N1CC(C)(C)N=C1N(C)C2=O" falls below 40 nM? Thanks.
Result: TRUE

Query: Dear colleague, could you confirm whether IC50 of "CCC(CC)c1nc2c([nH]1)N1C(=N[C@@H]3CCC[C@@H]31)N(C)C2=O" falls below 40 nM? Thanks.
Result: FALSE

Query: Dear colleague, could you confirm whether IC50 of "CC(C)CCc1nc2c([nH]1)N1C[C@@H](C(C)C)N=C1N(C)C2=O" falls below 40 nM? Thanks.
Result: TRUE

* * *

# TARGET_ENTITY: Dual specificity calcium/calmodulin-dependent 3',5'-cyclic nucleotide phosphodiesterase 1A (Bos taurus)
# ASSAY_INFO: Optimum inhibitory concentration required to inhibit c-GMP specific phosphodiesterase 1 (PDE1) of bovine aorta
I'd appreciate it if you could supply pIC50 values for the items below.
Scale for pIC50: -log10 of concentration given in mol/L; no unit attached.

Query: Reported pIC50 for "CC(C)CCCc1nc2c([nH]1)N1C[C@@H](C(C)C)N=C1N(C)C2=O" : what is it?
Result: 7.92

Query: Reported pIC50 for "CCCCc1nc2c([nH]1)N1C(=N[C@@H]3CCC[C@@H]31)N(C)C2=O" : what is it?
Result: 6.96

Query: Reported pIC50 for "CCCCCCc1nc2c([nH]1)N1CC3(CCCC3)N=C1N(C)C2=O" : what is it?
Result: 7.85

* * *

# TARGET_ENTITY: cGMP-specific 3',5'-cyclic phosphodiesterase (Bos taurus, UniProt Q28156)
# ASSAY_INFO: Optimum inhibitory concentration required to inhibit c-GMP specific Phosphodiesterase 5 (PDE5) of bovine lung
MEASURED_METRIC: pIC50
Scale for pIC50: -log10 of concentration given in mol/L; no unit attached.

Query: Reported pIC50 for "CC(C)CCCc1nc2c([nH]1)N1C(=N[C@@H]3CCC[C@@H]31)N(C)C2=O" : what is it?
Result: 8.00

Query: Reported pIC50 for "CCCCCCc1nc2c([nH]1)N1CC3(CCCC3)N=C1N(C)C2=O" : what is it?
Result: 7.96

Query: Reported pIC50 for "CCCCCCc1nc2c([nH]1)N1C[C@@H](C(C)C)N=C1N(C)C2=O" : what is it?
Result: 8.30

Query: Reported pIC50 for "CCCCCCc1nc2c([nH]1)N1CC(C)(C)N=C1N(C)C2=O" : what is it?
Result: 8.10

Query: Reported pIC50 for "CCC(CC)c1nc2c([nH]1)N1C(=N[C@@H]3CCC[C@@H]31)N(C)C2=O" : what is it?
Result: 5.85

* * *

I'd appreciate it if you could supply IC50 values for the items below.
# TARGET_ENTITY: Phosphodiesterase 3 (Homo sapiens, UniProt Q14432+Q13370)
# ASSAY_INFO: Optimum inhibitory concentration required to inhibit […] (PDE3)
# Format: protein assay
Your answer should be a plain number; it is taken to be in µM.

Query: Identify the measured IC50 of "CCCCCCc1nc2c([nH]1)N1CC(C)(C)N=C1N(C)C2=O" for Phosphodiesterase 3 (Homo sapiens, UniProt Q14432+Q13370).
Result: 28

Query: Identify the measured IC50 of "CC(C)CCc1nc2c([nH]1)N1C[C@@H](C(C)C)N=C1N(C)C2=O" for Phosphodiesterase 3 (Homo sapiens, UniProt Q14432+Q13370).
Result: 40

Query: Identify the measured IC50 of "CCc1nc2c([nH]1)N1C(=N[C@@H]3CCC[C@@H]31)N(C)C2=O" for Phosphodiesterase 3 (Homo sapiens, UniProt Q14432+Q13370).
Result: 150

Query: Identify the measured IC50 of "CCCCCCCc1nc2c([nH]1)N1C(=N[C@@H]3CCC[C@@H]31)N(C)C2=O" for Phosphodiesterase 3 (Homo sapiens, UniProt Q14432+Q13370).
Result: 7

Query: Identify the measured IC50 of "CCCCc1nc2c([nH]1)N1C(=N[C@@H]3CCC[C@@H]31)N(C)C2=O" for Phosphodiesterase 3 (Homo sapiens, UniProt Q14432+Q13370).
Result: 38

Query: Identify the measured IC50 of "CCCCCc1nc2c([nH]1)N1C(=N[C@@H]3CCC[C@@H]31)N(C)C2=O" for Phosphodiesterase 3 (Homo sapiens, UniProt Q14432+Q13370).
Result: 20

Query: Identify the measured IC50 of "CCCc1nc2c([nH]1)N1C(=N[C@@H]3CCC[C@@H]31)N(C)C2=O" for Phosphodiesterase 3 (Homo sapiens, UniProt Q14432+Q13370).
Result: 80

Query: Identify the measured IC50 of "CCCCCCc1nc2c([nH]1)N1C[C@@H](C(C)C)N=C1N(C)C2=O" for Phosphodiesterase 3 (Homo sapiens, UniProt Q14432+Q13370).
Result: 18

Query: Identify the measured IC50 of "CCC(CC)c1nc2c([nH]1)N1C(=N[C@@H]3CCC[C@@H]31)N(C)C2=O" for Phosphodiesterase 3 (Homo sapiens, UniProt Q14432+Q13370).
Result: 150

Query: Identify the measured IC50 of "CCCCCCc1nc2c([nH]1)N1CC3(CCCC3)N=C1N(C)C2=O" for Phosphodiesterase 3 (Homo sapiens, UniProt Q14432+Q13370).
Result: 15

Query: Identify the measured IC50 of "CC(C)CCCc1nc2c([nH]1)N1C[C@@H](C(C)C)N=C1N(C)C2=O" for Phosphodiesterase 3 (Homo sapiens, UniProt Q14432+Q13370).
Result: 65

Query: Identify the measured IC50 of "CC(C)CCCc1nc2c([nH]1)N1C(=N[C@@H]3CCC[C@@H]31)N(C)C2=O" for Phosphodiesterase 3 (Homo sapiens, UniProt Q14432+Q13370).
Result: 35

Query: Identify the measured IC50 of "CCCC(CCC)c1nc2c([nH]1)N1C(=N[C@@H]3CCC[C@@H]31)N(C)C2=O" for Phosphodiesterase 3 (Homo sapiens, UniProt Q14432+Q13370).
Result: 80

Query: Identify the measured IC50 of "CC(C)CCc1nc2c([nH]1)N1C(=N[C@@H]3CCC[C@@H]31)N(C)C2=O" for Phosphodiesterase 3 (Homo sapiens, UniProt Q14432+Q13370).
Result: 15

Query: Identify the measured IC50 of "CCCCCCc1nc2c([nH]1)N1C(=N[C@@H]3CCC[C@@H]31)N(C)C2=O" for Phosphodiesterase 3 (Homo sapiens, UniProt Q14432+Q13370).
Result: 12

* * *

# TARGET_ENTITY: Dual specificity calcium/calmodulin-dependent 3',5'-cyclic nucleotide phosphodiesterase 1A (Bos taurus, UniProt P14100)
# ASSAY_INFO: Optimum inhibitory concentration required to inhibit c-GMP specific phosphodiesterase 1 (PDE1) of bovine aorta
I'd appreciate it if you could supply IC50 values for the items below.
Your answer should be a plain number; it is taken to be in nM.

Query: Reported IC50 for "CCCCCCc1nc2c([nH]1)N1C[C@@H](C(C)C)N=C1N(C)C2=O" : what is it?
Result: 25

Query: Reported IC50 for "CCCCCc1nc2c([nH]1)N1C(=N[C@@H]3CCC[C@@H]31)N(C)C2=O" : what is it?
Result: 31

Query: Reported IC50 for "CCCCCCCc1nc2c([nH]1)N1C(=N[C@@H]3CCC[C@@H]31)N(C)C2=O" : what is it?
Result: 160

Query: Reported IC50 for "CCc1nc2c([nH]1)N1C(=N[C@@H]3CCC[C@@H]31)N(C)C2=O" : what is it?
Result: 295

Query: Reported IC50 for "CC(C)CCCc1nc2c([nH]1)N1C(=N[C@@H]3CCC[C@@H]31)N(C)C2=O" : what is it?
Result: 6
